B1: OR4K15 (parent)
chain: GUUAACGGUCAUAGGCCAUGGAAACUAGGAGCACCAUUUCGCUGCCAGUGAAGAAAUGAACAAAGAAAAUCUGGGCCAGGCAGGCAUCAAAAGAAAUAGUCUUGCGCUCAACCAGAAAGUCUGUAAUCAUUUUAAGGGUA

Variants of: B1
Test: self-cleavage, relative activity (ratio to wild type); higher = more cleavage; in vitro, sequencing; the parent is a self-cleaving ribozyme
Please mark criterion met if the recorded self-cleavage is equal to or greater than 0.7, and criterion not met if it falls below.

Examples with answers:
GUUAACGGUCAUAGGCCAUGGAAACUAGGAGCACCAUUUCGCUGCCAGUGAGGAAAUGAACAAAGAAAAUCUGGGCCAGGCAGGCAUCAAAAGAAAUAGUCUUGCGCCCAACCAGAAAGUCUGUAAUCAUUUUAAGGGUA [A52G U108C] :: criterion not met
GUUAACGGUCAUAGGCCAUGGAAACUAGGAGCACCAUUUCGCUGCCAGUGAAGAAAUGAACAAAGAAAGUCUGGGCCAGGCAAGCAUCAAAAGAAAUAGUCUUGCGCUCAACCAGAAAGUCUGUAAUCAUUUUAAGGGUA [A69G G83A] :: criterion met
GUUAACGGUCAUAGGCCAUAGAAGCUAGGAGCACCAUUUCGCUGCCAGUGAAGAAAUGAACAAAGAAAAUCUGGGCCAGGCAGGCAUCAAAAGAAAUAGUCUUGCGCUCAACCAGAAAGUCUGUAAUCAUUUUAAGGGUA [G20A A24G] :: criterion not met
GUUAACGGUCAUAGGCCAUGGAAACUAGGAGCACCAUUUCGCUGCCAGUGAAGAAAUGAACAAAGAAAAUCUGGGCCAGGCAGGCAUCAAAAGAAAUAGUCUUGCGCUCUACCAGAAAGUCUGUAAUCAUUUUAAGGGCA [A110U U139C] :: criterion not met

(Q) Test whether the variant GUUAACGGCCAUAGGCCAUGGAAACUAGGAGCACCAUUUCGCUGCCAGUGAAGAAAUGAACAAAGAAAAUCUGGGCCAGGCAGGCAUCAAAAGAAAUAGUCUUGCGCUCAACCGGAAAGUCUGUAAUCAUUUUAAGGGUA [U9C A114G] records self-cleavage of 0.7 or higher.
(A) criterion not met

(Q) Test whether the variant GUUAACGGUCAUAGGCCAUGGAAACUAGGAGCACCAUUUCGCUGCCAGUGAAGAAAUGAACGAAGAAAAUCCGGGCCAGGCAGGCAUCAAAAGAAAUAGUCUUGCGCUCAACCAGAAAGUCUGUAAUCAUUUUAAGGGUA [A62G U72C] records self-cleavage of 0.7 or higher.
(A) criterion not met

(Q) Test whether the variant GUUAACGGUCAUAGGCCAAGGAAACUAGGAGCACCAUUUCGCUGCCAGUGAAGAAAUGAACAAAGAAAAUCUGGGCCAGGCAGGCAUCAAAAGAAAUAGUCUUGCGCUCAACCAGAAAGUCUGUAAUCAUUUCAAGGGUA [U19A U133C] records self-cleavage of 0.7 or higher.
(A) criterion met
